# TGT: Mu-type opioid receptor (Homo sapiens, UniProt P35372)
# Sequence (P35372 whole entry): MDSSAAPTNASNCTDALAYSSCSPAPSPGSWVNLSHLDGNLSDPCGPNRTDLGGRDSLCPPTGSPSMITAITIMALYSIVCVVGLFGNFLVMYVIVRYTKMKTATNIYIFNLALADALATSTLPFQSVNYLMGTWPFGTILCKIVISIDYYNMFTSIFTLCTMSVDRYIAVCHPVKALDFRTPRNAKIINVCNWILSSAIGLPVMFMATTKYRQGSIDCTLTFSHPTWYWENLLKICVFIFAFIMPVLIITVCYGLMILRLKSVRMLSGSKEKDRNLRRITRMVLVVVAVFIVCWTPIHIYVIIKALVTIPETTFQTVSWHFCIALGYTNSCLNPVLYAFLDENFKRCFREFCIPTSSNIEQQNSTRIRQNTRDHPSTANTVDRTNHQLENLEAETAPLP
# TEST_PROTOCOL: Agonist activity at human Rluc8-tagged MOP expressed in HEK293 cells coexpressing eYFP-tagged beta-arrestin-2 assessed as beta-arrestin-2 recruitment incubated for 5 mins by luminometer analysis relative to control
# Type: functional, cell-based
# APPLIED_CONDITIONS: filed as agonist
Numbered stars: 1 amine (or outer) side, 2 acyl side, 3 side chain; on linkers, the order of the positions; unused ones are H or OH. Square brackets hold non-standard residues; d marks the D form. Peptide text beside a SMILES is read from it. Nva(5-(4-Bn-piperidin-1-yl)) = N[C@@H](CCCN1CCC(Cc2ccccc2)CC1)C(=O)O; X1 = O=C1[C@@H](N[*:1])Cc2ccccc2CN1CCC(=O)[*:2]; Dmt = Cc1cc(O)cc(C)c1C[C@H](N)C(=O)O; βAla = NCCC(=O)O; Sar = CNCC(=O)O
MEASURE: Emax
Enter the number, and then the unit.

Previously resolved entries follow.
• Cc1cc(O)cc(C)c1C[C@H](N)C(=O)N[C@H](CCCNC(=N)N)C(=O)N[C@@H](Cc1ccccc1)C(=O)NCCC(=O)N[C@@H](CCCN1CCC(Cc2ccccc2)CC1)C(=O)N[C@@H](Cc1ccccc1)C(N)=O (H-[Dmt][dR]F[βAla][Nva(5-(4-Bn-piperidin-1-yl))]F-NH2) = 53%
• Cc1cc(O)cc(C)c1C[C@H](N)C(=O)N[C@H](CCCNC(=N)N)C(=O)N[C@@H](Cc1ccccc1)C(=O)N(C)CC(=O)N[C@@H](CCCN1CCC(Cc2ccccc2)CC1)C(=O)N[C@H](C(N)=O)C(C)C (H-[Dmt][dR]F[Sar][Nva(5-(4-Bn-piperidin-1-yl))]V-NH2) = 116%
• Cc1cc(O)cc(C)c1C[C@H](N)C(=O)N[C@H](CCCNC(=N)N)C(=O)N[C@H]1Cc2ccccc2CN(CCC(=O)N[C@@H](CCCN2CCC(Cc3ccccc3)CC2)C(=O)N[C@H](Cc2ccccc2)C(N)=O)C1=O = 59%
• Cc1cc(O)cc(C)c1C[C@H](N)C(=O)N[C@H](CCCNC(=N)N)C(=O)N[C@@H](Cc1ccccc1)C(=O)N(C)CC(=O)N[C@@H](CCCN1CCC(Cc2ccccc2)CC1)C(=O)N[C@@H](Cc1ccccc1)C(N)=O (H-[Dmt][dR]F[Sar][Nva(5-(4-Bn-piperidin-1-yl))]F-NH2) = 96%
• Cc1cc(O)cc(C)c1C[C@H](N)C(=O)N[C@H](CCCNC(=N)N)C(=O)N[C@H]1Cc2ccccc2CN(CCC(=O)N[C@@H](CCCN2CCc3ccccc3C2)C(=O)N[C@@H](Cc2ccccc2)C(N)=O)C1=O = 60%
• Cc1cc(O)cc(C)c1C[C@H](N)C(=O)N[C@H](CCCNC(=N)N)C(=O)N[C@H]1Cc2c(ccc3ccccc23)CN(CCC(=O)N[C@@H](CCCN2CCC(Cc3ccccc3)CC2)C(=O)N[C@@H](Cc2ccccc2)C(N)=O)C1=O = 60%
• Cc1cc(O)cc(C)c1C[C@H](N)C(=O)N[C@H](CCCNC(=N)N)C(=O)N[C@@H](Cc1ccccc1)C(=O)N(C)[C@H](C)C(=O)N[C@@H](CCCN1CCC(Cc2ccccc2)CC1)C(=O)N[C@@H](Cc1ccccc1)C(N)=O = 83%

API: the following record is the query input.
Query: Name the recorded Emax of the compound listed here: Cc1cc(O)cc(C)c1C[C@H](N)C(=O)N[C@H](CCCNC(=N)N)C(=O)N[C@H]1Cc2ccccc2CN(CCC(=O)N[C@@H](CCCN2CCC(Cc3ccccc3)CC2)C(=O)N[C@@H](Cc2c[nH]c3ccccc23)C(N)=O)C1=O (H-[Dmt][dR][X1][Nva(5-(4-Bn-piperidin-1-yl))]W-NH2)
Response: 42%
